Biological target: human 5-HT2A (Homo sapiens (Human), UniProt P28223)
Assay: cell-based
Assay type: cell-based
Conditions: agonist potency, n = 3-4; read-out: 5-HT2A EC50
Counter-ions that a name gives are not always drawn.
assay.metric: pEC50
// returns pEC50 (minus log10 of molar concentration), number only

- compound: "CCOc1cc(CC)c(OC)cc1[C@H]1CCCNC1"
  assay.system: "human 5-HT2A (Homo sapiens (Human), UniProt P28223)"
  pEC50: 5.82
- compound: "CCOc1cc([C@H]2CCCNC2)c(OC)cc1CC.Cl [Compound 33, hydrochloride]"
  assay.system: "human 5-HT2A (Homo sapiens (Human), UniProt P28223)"
  pEC50: 5.96
- compound: "CCOc1cc([C@@H]2CCCNC2)c(OC)cc1C(F)(F)F.Cl [Compound 20, hydrochloride]"
  assay.system: "human 5-HT2A (Homo sapiens (Human), UniProt P28223)"
  pEC50: 8.00

Known value: human 5-HT2A (Homo sapiens (Human), UniProt P28223) pEC50 of the compound COc1cc(C(F)(F)F)ccc1[C@H]1CCCNC1 [Compound 52, hydrochloride] equals 6.32

Entry COc1cc([C@@H]2CCCNC2)c(OC)cc1Br , human 5-HT2A (Homo sapiens (Human), UniProt P28223) data, pEC50 value: 7.16

Reading of pEC50 for Br.COc1cc([C@@H]2CCNC2)c(OC)cc1Br [Compound 4, Hydrobromide] with human 5-HT2A (Homo sapiens (Human), UniProt P28223): 8.11

Hey, human 5-HT2A (Homo sapiens (Human), UniProt P28223) data for COc1cc([C@H]2CCCNC2)c(OC)cc1SC(C)C : pEC50 came out at 6.54

Record COc1cc(C(F)(F)F)c(OC)cc1[C@@H]1CCCN(C)C1 / human 5-HT2A (Homo sapiens (Human), UniProt P28223), pEC50 recorded as 6.41

Value (pEC50, human 5-HT2A (Homo sapiens (Human), UniProt P28223)) for record COc1cc(C(F)(F)F)c(OC)cc1[C@H]1CCNC1 = 7.96

Summary line: COc1cc(C(F)(F)F)c(SC)cc1[C@H]1CCCNC1.Cl [Compound 44, hydrochloride] , human 5-HT2A (Homo sapiens (Human), UniProt P28223), reported pEC50 = 7.15

Record for CCOc1cc(CC)c(OC)cc1[C@@H]1CCCNC1 under target or system human 5-HT2A (Homo sapiens (Human), UniProt P28223): pEC50 reported as 6.85

Fill in: human 5-HT2A (Homo sapiens (Human), UniProt P28223) pEC50 for COc1cc(C(F)(F)F)c(OC)cc1C1CCC(C)NC1 (single isomer, unassigned) [Compound 38, hydrochloride] = 6.80

----------
Biological target: human 5-HT2A (Homo sapiens (Human))
Test: cell-based
Assay type: cell-based
Conditions: Ca2+/Fluo-4 assay; bounds are conservative estimates
Marks after values point to notes of the source that are not given here.
assay.metric: Selectivity EC50 5-HT2C/EC50 5-HT2A

Sample answers from the record:
- smiles: "CCN1CCC[C@@H](c2cc(OC)c(C(F)(F)F)cc2OC)C1"
  assay.system: "human 5-HT2A (Homo sapiens (Human))"
  assay.metric: "Selectivity EC50 5-HT2C/EC50 5-HT2A"
  observed: ">30^e"
- smiles: "CCSc1cc([C@@H]2CCCNC2)c(OC)cc1C(F)(F)F.Cl"
  assay.system: "human 5-HT2A (Homo sapiens (Human))"
  assay.metric: "Selectivity EC50 5-HT2C/EC50 5-HT2A"
  observed: 17
- smiles: "COc1cc(C2CNC2)c(OC)cc1Br.Cl"
  assay.system: "human 5-HT2A (Homo sapiens (Human))"
  assay.metric: "Selectivity EC50 5-HT2C/EC50 5-HT2A"
  observed: 3.6

The value of Selectivity EC50 5-HT2C/EC50 5-HT2A measured for the molecule CCOc1cc([C@H]2CCCNC2)c(OC)cc1CC.Cl turned out to be >10^e

Please fill in: Selectivity EC50 5-HT2C/EC50 5-HT2A reported for CCOc1cc(C(F)(F)F)c(OCC)cc1[C@H]1CCCNC1.Cl = >10^e

----------
Target: 5-HT2C (Homo sapiens (Human), UniProt P28335)
Sequence (P28335 whole entry, looked up): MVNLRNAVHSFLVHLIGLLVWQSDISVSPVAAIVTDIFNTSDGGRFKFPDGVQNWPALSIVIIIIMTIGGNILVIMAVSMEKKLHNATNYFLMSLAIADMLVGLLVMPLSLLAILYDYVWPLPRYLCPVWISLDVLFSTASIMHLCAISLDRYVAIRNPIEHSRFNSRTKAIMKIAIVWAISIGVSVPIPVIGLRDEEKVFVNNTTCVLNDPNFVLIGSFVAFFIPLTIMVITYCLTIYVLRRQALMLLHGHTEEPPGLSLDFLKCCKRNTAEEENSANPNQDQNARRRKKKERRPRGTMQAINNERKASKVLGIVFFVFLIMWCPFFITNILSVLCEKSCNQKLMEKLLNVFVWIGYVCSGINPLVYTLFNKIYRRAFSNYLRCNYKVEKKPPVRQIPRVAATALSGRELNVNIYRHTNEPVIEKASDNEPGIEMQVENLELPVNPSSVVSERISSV
Test: Ca2+/Fluo-4 assay, stable h5-HT2C-HEK293 cell line
Assay type: cell-based
Details: 5-HT2C EC50 (nM), agonist potency, n = 3-4
assay.metric: EC50 (nM)
Express the result in nM but write the number alone.

COc1cc(CCNCc2ccccc2O)c(OC)cc1C#N [drawing 23, reference compound] has a reported EC50 of 47

----------
Target: 5-HT2C (Homo sapiens (Human))
Test: Ca2+/Fluo-4 assay, stable h5-HT2C-HEK293 cell line
Assay type: cell-based
Conditions: % of the Rmax of 5-HT
5-HT2C Rmax ± S.E.M listing for selected molecules.
Give the value, in units of %, as a plain number.

See these solved cases before continuing.
- molecule: "Br.COc1cc([C@@H]2CCNC2)c(OC)cc1Br"
  assay.system: "5-HT2C (Homo sapiens (Human))"
  5-HT2C Rmax ± S.E.M (%): 16
- molecule: "COc1cc(C(F)(F)F)c(OC)cc1[C@@H]1CCNC1"
  assay.system: "5-HT2C (Homo sapiens (Human))"
  5-HT2C Rmax ± S.E.M (%): 28
- molecule: "COc1cc(C(F)(F)F)c(OC)cc1[C@@H]1CNC[C@@H](C)C1.Cl (relative stereo)"
  assay.system: "5-HT2C (Homo sapiens (Human))"
  5-HT2C Rmax ± S.E.M (%): 43
- molecule: "COc1cc(C2CNC2)c(OC)cc1Br.Cl"
  assay.system: "5-HT2C (Homo sapiens (Human))"
  5-HT2C Rmax ± S.E.M (%): 90

--- query ---
Reported 5-HT2C Rmax ± S.E.M for COc1cc([C@H]2CCNC2)c(OC)cc1Br was 73

----------
Target: UniProtKB P28335
Assay: Ca2+/Fluo-4 assay, stable h5-HT2C-HEK293 cell line;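 note: Agonist-induced intracellular Ca2+ rise read by Fluo-4 fluorescence in HEK293 cells stably expressing the human 5-HT2C receptor, each compound run in duplicate on three or more occasions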
Assay type: cell-based
Conditions: agonist potency, n = 3-4; read-out: 5-HT2C EC50
Where a name gives a salt, the structure may show the parent alone.
pEC50 values by entry
Schema: pEC50 number; meaning minus log10 of the concentration expressed in molar units.

Some solved entries appear below for comparison.
- compound: "CCSc1cc([C@H]2CCCNC2)c(OC)cc1C(F)(F)F.Cl [Compound 46, hydrochloride]"
  pEC50: 5.96
- compound: "COc1cc(C2CC[C@@H](c3ccccc3OC)NC2)c(OC)cc1Br (stereo partly drawn) [Compound 8a, reference compound]"
  pEC50: 5.70
- compound: "COc1cc(C(F)(F)F)c(OC)cc1C1CCC(C)NC1 (single isomer, unassigned) [Compound 37, hydrochloride]"
  pEC50: 5.47

Next compound, pEC50 to be filled in.
// compound COc1cc(C(F)(F)F)c(OC)cc1[C@H]1CCCNC1 [Compound 7, hydrochloride] , assay UniProtKB P28335, pEC50 value: 6.07

----------
Biological target: a2B (Homo sapiens (Human), UniProt P18089)
Sequence (P18089 whole entry, looked up): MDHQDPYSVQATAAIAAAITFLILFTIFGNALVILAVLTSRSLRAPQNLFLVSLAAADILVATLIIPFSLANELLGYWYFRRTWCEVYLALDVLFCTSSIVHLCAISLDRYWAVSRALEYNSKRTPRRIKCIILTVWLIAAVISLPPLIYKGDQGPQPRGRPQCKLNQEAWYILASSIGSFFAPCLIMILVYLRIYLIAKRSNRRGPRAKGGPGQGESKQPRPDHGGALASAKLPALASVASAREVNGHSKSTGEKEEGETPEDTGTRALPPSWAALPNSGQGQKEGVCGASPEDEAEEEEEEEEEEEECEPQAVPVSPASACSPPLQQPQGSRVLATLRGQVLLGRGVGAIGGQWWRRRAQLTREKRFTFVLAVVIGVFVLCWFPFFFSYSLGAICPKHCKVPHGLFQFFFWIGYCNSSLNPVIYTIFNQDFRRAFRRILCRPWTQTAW
Test: radioligand competition binding assay (Psychiatric Drug Screening Program)
assay.metric: Ki (nM)
# unit: nM | format: bare number

COc1cc(C(F)(F)F)c(OC)cc1[C@@H]1CCCNC1.Cl [Compound 8, hydrochloride] has a reported Ki of 820

----------
Target: UniProt P18825
Sequence (P18825 whole entry, looked up): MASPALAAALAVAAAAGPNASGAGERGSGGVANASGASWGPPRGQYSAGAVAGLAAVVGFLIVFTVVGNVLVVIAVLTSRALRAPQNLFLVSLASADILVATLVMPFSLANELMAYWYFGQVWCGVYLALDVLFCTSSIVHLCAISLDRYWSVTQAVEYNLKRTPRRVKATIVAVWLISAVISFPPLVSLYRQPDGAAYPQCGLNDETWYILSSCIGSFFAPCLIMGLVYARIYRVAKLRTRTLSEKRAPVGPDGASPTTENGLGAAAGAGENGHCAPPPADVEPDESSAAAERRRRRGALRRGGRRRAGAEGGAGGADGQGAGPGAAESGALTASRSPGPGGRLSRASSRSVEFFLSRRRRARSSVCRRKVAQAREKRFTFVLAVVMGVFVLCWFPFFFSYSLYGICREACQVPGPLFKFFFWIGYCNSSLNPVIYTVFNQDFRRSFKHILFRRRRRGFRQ
Assay: radioligand competition binding assay (Psychiatric Drug Screening Program)
assay.metric: Ki (nM)
Write it as a number; the unit nM goes unstated.

For reference, reported Ki for CN(C)CCc1c[nH]c2cccc(O)c12 stands at 4400

----------
Target: a1B (Homo sapiens (Human), UniProt P35368)
Sequence (P35368 whole entry, looked up): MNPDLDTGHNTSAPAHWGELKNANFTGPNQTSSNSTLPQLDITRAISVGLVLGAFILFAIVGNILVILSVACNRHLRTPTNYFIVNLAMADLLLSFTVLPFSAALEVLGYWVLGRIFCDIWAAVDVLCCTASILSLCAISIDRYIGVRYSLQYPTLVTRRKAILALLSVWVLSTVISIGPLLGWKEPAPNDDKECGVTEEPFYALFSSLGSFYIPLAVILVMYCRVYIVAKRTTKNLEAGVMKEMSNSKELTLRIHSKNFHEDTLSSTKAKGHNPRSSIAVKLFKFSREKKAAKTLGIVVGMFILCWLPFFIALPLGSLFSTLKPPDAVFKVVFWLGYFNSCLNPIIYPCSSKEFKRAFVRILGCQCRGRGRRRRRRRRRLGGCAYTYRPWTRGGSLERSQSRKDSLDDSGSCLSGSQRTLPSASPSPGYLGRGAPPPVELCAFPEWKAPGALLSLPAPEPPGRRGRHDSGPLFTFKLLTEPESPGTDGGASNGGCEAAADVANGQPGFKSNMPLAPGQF
Assay: radioligand competition binding assay (Psychiatric Drug Screening Program)
Conditions: read-out: Ki (nM) a1B
assay.metric: Ki

Ki value, target or system a1B (Homo sapiens (Human), UniProt P35368), for COc1cc(C(F)(F)F)c(OC)cc1[C@@H]1CCCNC1.Cl [Compound 8, hydrochloride] : > 10000 nM

----------
Target: a1A (Homo sapiens (Human), UniProt P35348)
Sequence (P35348 whole entry, looked up): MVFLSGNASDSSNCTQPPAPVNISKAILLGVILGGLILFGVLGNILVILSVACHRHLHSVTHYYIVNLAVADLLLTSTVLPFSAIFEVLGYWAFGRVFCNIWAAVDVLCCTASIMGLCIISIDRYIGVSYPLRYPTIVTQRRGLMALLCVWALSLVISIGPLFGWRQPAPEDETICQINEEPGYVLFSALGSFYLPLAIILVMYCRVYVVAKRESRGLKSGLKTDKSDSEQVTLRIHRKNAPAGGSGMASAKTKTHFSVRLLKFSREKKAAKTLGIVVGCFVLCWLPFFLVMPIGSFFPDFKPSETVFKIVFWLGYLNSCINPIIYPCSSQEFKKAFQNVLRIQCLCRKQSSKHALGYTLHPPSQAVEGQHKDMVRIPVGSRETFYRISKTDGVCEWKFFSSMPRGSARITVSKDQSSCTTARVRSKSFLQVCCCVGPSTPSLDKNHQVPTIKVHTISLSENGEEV
Assay: radioligand competition binding assay (Psychiatric Drug Screening Program)
assay.metric: Ki

Entry CN(C)CCc1c[nH]c2cccc(O)c12 ; Ki = > 10 µM

----------
Target: 5-HT2C (Homo sapiens (Human), UniProt P28335)
Experiment: IP assay (Eurofins, IP1 HTRF), HEK293 cells
Assay type: cell-based
Details: IP assay, % of Rmax of 5-HT
Reported values of 5-HT2C Rmax (%) for individual entries
Form entry: value (%) — number only.

// known answers, use as guide
- compound: "COc1cc(C(F)(F)F)c(OC)cc1CCN [Compound 2C-TFM, reference compound]"
  5-HT2C Rmax (%): 100
- compound: "COc1cc(CCNCc2ccccc2O)c(OC)cc1C#N [Compound 25CN-NBOH]"
  5-HT2C Rmax (%): 84
- compound: "COc1cc(C2CC[C@@H](c3ccccc3OC)NC2)c(OC)cc1Br (stereo partly shown) [Compound 8a, reference compound]"
  5-HT2C Rmax (%): 80

Would you kindly look at the next entry?
5-HT2C Rmax (%) reported for this compound COc1cc(CC(C)N)c(OC)cc1I (stereo not shown) [DOI, 2,5-Dimethoxy-4-iodoamphetamine, reference compound] : 89
